// reported pKd for each item listed
- Tested system: T1, PDZD7_3, Q9H5P4
- T1 sequence (Q9H5P4 857-944, limits assumed, looked up): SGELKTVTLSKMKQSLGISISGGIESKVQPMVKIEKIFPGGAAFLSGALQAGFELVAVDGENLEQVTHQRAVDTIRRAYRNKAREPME
- Measurement description: holdup assay
- Design: key: below the threshold = too weak to quantify, mostly under pKd 3.1 to 4
- Assay conditions: plain residues with an end cap or a label only (N-terminal biotin on a linker: ado-ado)
A bare number is all that is needed in reply.

-- ask Would you kindly share the measured pKd for PDGQCTVTEV [RNF146, Q9NTX7] ?
-- reply 5.09

-- ask Would you kindly share the measured pKd for LPHGHSTTRV [NLGN4X, Q8N0W4] ?
-- reply 4.28

-- ask Would you kindly share the measured pKd for TPPAAKKSRI [BAZ1A, Q9NRL2] ?
-- reply 4.52

-- ask Would you kindly share the measured pKd for YRLAQESGLV [ABCC6, O95255] ?
-- reply 4.01

Where do these numbers come from? They come from paper PMC9482650.
